# target.or.system: T1, COVID S1 RBM Fc fusion (Antigen 2) (SARS-CoV-2, UniProt P0DTC2 437-508)
# T1 construct: domain: RBM
# protocol.notes: phage ELISA

binder	unit.of.measurement	specificity ELISA, fold over background
SARS-CoV-2 variant 1-37 (antibody, V domains shown) VH: EVQLLESGGGLVQPGGSLRLSCAASGFTFTSYAMNWVRQAPGKGLEWVTAISGSGGSTFYADSVKGRFTISRDNSKNTLYLQMNSLRAEDTAVYYCTRPPYGDYGDYWGQGTLVTVSS VL: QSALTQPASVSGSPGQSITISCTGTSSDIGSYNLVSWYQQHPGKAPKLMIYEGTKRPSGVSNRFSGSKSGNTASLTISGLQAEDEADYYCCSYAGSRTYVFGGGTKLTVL	fold over background	1.4
SARS-CoV-2 variant 1-22 (antibody, V domains shown) VH: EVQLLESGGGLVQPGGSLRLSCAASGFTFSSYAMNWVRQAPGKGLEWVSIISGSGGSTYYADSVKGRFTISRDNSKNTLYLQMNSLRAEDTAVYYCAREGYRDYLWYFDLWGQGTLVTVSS VL: QSALTQPASVSGSPGQSITISCTGTSTDVGSYNLVSWYQQHPGKAPKLMIYEGSQRPSGVSNRFSGSKSGNTASLTISGLQAEDEADYYCCSYAGSSTVFGGGTKLTVL	fold over background	1.5
SARS-CoV-2 variant 1-47 (antibody, V domains shown) VH: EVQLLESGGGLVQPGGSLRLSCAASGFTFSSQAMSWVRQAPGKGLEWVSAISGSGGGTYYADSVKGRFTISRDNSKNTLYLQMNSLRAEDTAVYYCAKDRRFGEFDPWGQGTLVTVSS VL: QSALTQPASVSGSPGQSITISCTGTSSGVGSYNLVSWYQQHPGKAPKLMIYEGIKRPSGVSNRFSGSKSGNTASLTISGLQAEDEADYYCCSYAGSSSFVVFGGGTKLTVL	fold over background	0.9
